system: SYK; conditions: concentration: 1 μM, replicates: in singlicate; n = 1;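 note: KINOMEscan kinase panel screen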
1 if %Inh is below 20%. -1 if not; exact matches included in -1.

{"compound": "O=C(O)C(F)(F)F.O=C(O)C(F)(F)F.O=c1[nH]ccc2nc(N[C@@H]3CCCNC3)nc(Nc3ccc(S(=O)(=O)N4CCOCC4)cc3)c12", "assigned category": -1}
{"compound": "COC(=O)Nc1nc2cc(Oc3ccc(NC(=O)Nc4cc(C(F)(F)F)ccc4F)cn3)ccc2[nH]1.Cl.Cl", "assigned category": 1}
{"compound": "COc1cc(Nc2nccc(N3CCC(NC(=O)c4cc5ccccc5s4)C3)n2)cc(OC)c1OC (stereo not shown)", "assigned category": -1}
{"compound": "NCCCC(NC(=O)c1cc(Br)c(-c2ccnc3[nH]ccc23)s1)c1ccccc1.O=C(O)C(F)(F)F.O=C(O)C(F)(F)F (stereo not shown)", "assigned category": 1}
{"compound": "Clc1ccc(-c2nn3ncccc3c2-c2ccnc(Nc3ccc4c(c3)OCCO4)n2)cc1", "assigned category": 1}
{"compound": "O=C(Nc1cccc(-c2nn3ccccc3c2-c2ccnc(Nc3cccc(F)c3)n2)c1)c1c(F)ccc(F)c1Cl", "assigned category": 1}
{"compound": "COc1cc(Nc2nccc(N3CCC(NC(=O)Nc4cccc(C(C)=O)c4)C3)n2)cc(OC)c1OC (stereo not shown)", "assigned category": -1}
